# System: biotinyl-Ile-oxazolone
# assay info: self-aminoacylation, catalytic enhancement (BIO) (fold over background); higher = more active; k-Seq, kA / k0A0; sequences stand for … in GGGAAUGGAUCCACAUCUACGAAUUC…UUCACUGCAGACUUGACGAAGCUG
Variants at the floor of the assay were thinned out.
assay readout: self-aminoacylation

input sequence: AUGUUUGCCAAUAGUCGCAAG [Fam3.1 aminoacylation ribozyme variant]
self-aminoacylation: 1.53
--
input sequence: AUUCAUCUAGGUCAUCGGGUU [Fam2.2 aminoacylation ribozyme variant]
self-aminoacylation: 2.22
--
input sequence: CCACCCUUCAAGCAAUAGGUC [Fam1B.1 aminoacylation ribozyme variant]
self-aminoacylation: 0.645
--
input sequence: CUACACUUCAAGCAAUGGGUC [Fam1B.1 aminoacylation ribozyme variant]
self-aminoacylation: 0.65

Form: sequence = AUUACCCAGGUCAUCGAGUGU [Fam2.1 aminoacylation ribozyme variant] ; self-aminoacylation = 1.65

The sequence listed as AUUACCCUGGUGUUCGAGUGA [Fam2.1 aminoacylation ribozyme variant] shows self-aminoacylation equal to 2.73

---

# Tested on: biotinyl-Val-oxazolone
# assay info: self-aminoacylation, catalytic enhancement (BVO) (fold over background); higher = more active; k-Seq, kA / k0A0; sequences stand for … in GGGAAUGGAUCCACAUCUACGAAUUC…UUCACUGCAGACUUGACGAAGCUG
Variants at the floor of the assay were thinned out.
Cut-off 2 on self-aminoacylation, inclusive. At or above means true (1); below means false (0).

The following sequences have reported results that may help.
input sequence: AUUCUCCUAGGUCAUCGGGUU [Fam2.2 aminoacylation ribozyme variant]
label value: true (1)

input sequence: AUUCACCUAGGUCAUGGGGUU [Fam2.2 aminoacylation ribozyme variant]
label value: false (0)

### Prompt Is self-aminoacylation at least 2? Consider AUUCACCUCGGUAAUCGGGUG [Fam2.2 aminoacylation ribozyme variant]
### Response true (1)

### Prompt Form field: self-aminoacylation at least 2? Entry: AUUACCCUGAUCGUCGAGUGA [Fam2.1 aminoacylation ribozyme variant]
### Response false (0)

### Prompt Is self-aminoacylation for CUACCUCAAACAAUCGCUCUG [Fam1A.1 aminoacylation ribozyme variant] at or above 2?
### Response false (0)

### Prompt API: above_or_equal(metric=self-aminoacylation, cutoff=2) for item AAGGUUGCUAAUAGUCGCGAG [Fam3.1 aminoacylation ribozyme variant]
### Response false (0)

### Prompt Is it the case that AUUCACCUAGGCCAGCGGGUG [Fam2.2 aminoacylation ribozyme variant] has self-aminoacylation reaching or exceeding 2?
### Response true (1)

### Prompt Decide: self-aminoacylation of AUUUACCUAGGACAUCGGGUG [Fam2.2 aminoacylation ribozyme variant] >= 2?
### Response true (1)

---

# System: biotinyl-Ile-oxazolone
# assay info: self-aminoacylation, catalytic enhancement (BIO) (fold over background); higher = more active; k-Seq, kA / k0A0; sequences stand for … in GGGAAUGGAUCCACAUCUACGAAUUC…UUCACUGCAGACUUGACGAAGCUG
This sample holds only a part of the variants without activity.
self-aminoacylation of 3 or higher: MET. Under 3: NOT MET.

input sequence: AAGUUUCCUAAUAGUCGCAAA [Fam3.1 aminoacylation ribozyme variant]
label value: NOT MET
//
input sequence: CCGGACUUCAAGCAAUCGGUC [Fam1B.1 aminoacylation ribozyme variant]
label value: NOT MET
//
input sequence: CCAAACUUCAAGCAAACGGUC [Fam1B.1 aminoacylation ribozyme variant]
label value: NOT MET

### Prompt Please tell me: is the sequence AUUCAGCUAGGCCAUCGGGUG [Fam2.2 aminoacylation ribozyme variant] at or over 3 in terms of self-aminoacylation?
### Response MET

### Prompt In plain terms: is recorded self-aminoacylation at least 3 for AUUCGCCUAGGUCAUCGGGCG [Fam2.2 aminoacylation ribozyme variant] ?
### Response MET

### Prompt Does self-aminoacylation meet or surpass 3 for AUUCUCCUAGGUCAACGGGUG [Fam2.2 aminoacylation ribozyme variant] ?
### Response MET

### Prompt Please check the record AUGUACCUAGGUCAUCGGGUG [Fam2.2 aminoacylation ribozyme variant] and state if its self-aminoacylation is at or above 3.
### Response MET

### Prompt Could you tell me if the measured self-aminoacylation of AAGUUUACUAAUAGUCACAAG [Fam3.1 aminoacylation ribozyme variant] reaches 3 or more?
### Response NOT MET

### Prompt Determine whether measured self-aminoacylation meets or exceeds 3 for AUUACCCUAGGUCAUCGGGUG [Fam2.2 aminoacylation ribozyme variant]
### Response MET

### Prompt hey, is self-aminoacylation for this one >= 3? AUUCUCCUAUGUCAUCGGGUG [Fam2.2 aminoacylation ribozyme variant]
### Response MET

### Prompt Quick check, self-aminoacylation >= 3? AUUACGCUGGUCAUCGUGUGA [Fam2.1 aminoacylation ribozyme variant]
### Response NOT MET

### Prompt Determine whether measured self-aminoacylation meets or exceeds 3 for CUACUUCAAUCUAUCGGUCUG [Fam1A.1 aminoacylation ribozyme variant]
### Response NOT MET
